# testedTarget: Peroxisome proliferator-activated receptor alpha (Homo sapiens, UniProt Q07869)
# Sequence (Q07869 whole entry): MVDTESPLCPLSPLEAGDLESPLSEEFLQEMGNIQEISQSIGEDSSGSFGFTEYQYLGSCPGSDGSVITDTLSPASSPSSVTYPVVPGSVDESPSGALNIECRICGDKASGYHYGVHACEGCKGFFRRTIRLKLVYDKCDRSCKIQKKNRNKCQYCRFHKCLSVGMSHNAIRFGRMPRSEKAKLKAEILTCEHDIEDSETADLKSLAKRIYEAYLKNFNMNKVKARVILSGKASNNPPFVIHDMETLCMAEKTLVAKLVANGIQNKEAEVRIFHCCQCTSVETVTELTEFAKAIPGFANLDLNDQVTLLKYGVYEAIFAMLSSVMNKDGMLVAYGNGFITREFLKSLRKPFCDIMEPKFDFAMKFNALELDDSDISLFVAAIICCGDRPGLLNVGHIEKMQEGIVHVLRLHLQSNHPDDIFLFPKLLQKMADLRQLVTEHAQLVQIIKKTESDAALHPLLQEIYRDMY
# measurementDescription: Binding affinity to human PPARalpha
Reported IC50 values follow for various molecules
measureName: IC50

* Cc1c(Oc2ccc(Cl)cc2)c2ccc(F)nc2n1Cc1ccc(Cl)c(O[C@@H](C)C(=O)O)c1 | > 50 µM
* Cc1c(Oc2ccc(Cl)cc2)c2cccnc2n1Cc1ccc(F)c(O[C@@H](C)C(=O)O)c1 | > 50 µM
* Cc1c(Oc2ccc(Cl)cc2)c2ccc(F)nc2n1Cc1cc(O[C@@H](C)C(=O)O)ccc1Cl | > 50 µM
* COc1ccc(C(=O)c2c(C)n(Cc3ccc(Cl)c(O[C@@H](C)C(=O)O)c3)c3nc(OC)ccc23)cc1 | > 50 µM
* COc1ccc(C(=O)c2c(C)n(Cc3cc(O[C@@H](C)C(=O)O)ccc3Cl)c3nc(OC)ccc23)cc1 | > 50 µM
* Cc1c(Oc2ccc(Cl)cc2)c2ccc(Cl)nc2n1Cc1ccc(Cl)c(O[C@@H](C)C(=O)O)c1 | > 50 µM
* Cc1c(Oc2ccc(Cl)cc2)c2cccnc2n1Cc1cc(O[C@@H](C)C(=O)O)ccc1F | > 50 µM
* COc1ccc(C(=O)c2c(C)n(Cc3cccc(O[C@@H](C)C(=O)O)c3)c3ncccc23)cc1 | > 50 µM
* COc1ccc(C(=O)c2c(C)n(Cc3cccc(O[C@@H](C)C(=O)O)c3)c3nc(C)ccc23)cc1 | > 50 µM
* Cc1c(Oc2ccc(Cl)cc2)c2cccnc2n1Cc1cc(O[C@@H](C)C(=O)O)ccc1Cl | > 50 µM
* COc1ccc(C(=O)c2c(C)n(Cc3ccc(F)c(O[C@@H](C)C(=O)O)c3)c3ncccc23)cc1 | > 50 µM
* COc1ccc(C(=O)c2c(C)n(Cc3cc(O[C@@H](C)C(=O)O)ccc3F)c3ncccc23)cc1 | > 50 µM
* Cc1c(Oc2ccc(Cl)cc2)c2ccc(F)nc2n1Cc1ccc(F)c(O[C@@H](C)C(=O)O)c1 | > 50 µM
* Cc1c(Oc2ccc(Cl)cc2)c2ccc(C(F)(F)F)nc2n1Cc1ccc(Cl)c(O[C@@H](C)C(=O)O)c1 | > 50 µM
* COc1ccc(C(=O)c2c(C)n(Cc3cc(O[C@@H](C)C(=O)O)ccc3F)c3nc(OC)ccc23)cc1 | > 50 µM
